test: Volume of distribution at steady state in dog; type: ADME, organism-based, Canis lupus familiaris; conditions: in vivo, read-out: Vdss
// Vd lookup, one value per entry
All answers are understood in L/kg, so give the number only.

Answered examples (2):
| smiles-notation | Vd, L/kg |
| --- | --- |
| Cc1ncc(-c2nc(Nc3ccc(N4CCN(C(=O)CO)CC4)cc3)ncc2F)n1C(C)C | 3.5 |
| Cc1ncc(-c2ccnc(Nc3ccc(N4CCN(C(=O)CO)CC4)cc3)n2)n1C(C)C | 3.4 |

Exercise: So what does the record say about Vd for Cc1ncc(-c2nc(Nc3ccc(N4CCOCC4)cc3)ncc2F)n1C(C)C ?
Key: 2.9

* * *

target: Cyclin-dependent kinase 2 (Homo sapiens); assay: Inhibition of CDK2/Cyclin E
Binarize IC50 at 6 nM; below is Condition met, at or above is Condition not met.

Consider the worked cases shown below.
| smiles-notation | class-name |
| --- | --- |
| Cc1ncc(-c2ccnc(Nc3ccc(N4CCN(S(C)(=O)=O)CC4)cc3)n2)n1C(C)C | Condition met |
| COCCS(=O)(=O)N1CCN(c2ccc(Nc3nccc(-c4cnc(C)n4C(C)C)n3)cc2)CC1 | Condition met |

Exercise: Please indicate whether the reported IC50 of CC(=O)N1CCN(c2ccc(Nc3nccc(-c4cnc(C)n4C(C)C)n3)cc2)CC1 is strictly below 6 nM.
Key: Condition met

Exercise: And what about the compound CC(=O)NC1CN(c2ccc(Nc3ncc(F)c(-c4cnc(C)n4C(C)C)n3)cc2)C1 ?
Key: Condition met

* * *

// fraction unbound lookup, one value per entry
experiment: Protein binding in rat plasma assessed as unbound fraction; type: ADME, cell-free

| smiles-notation | test-value |
| --- | --- |
| CC(=O)NC1CN(c2ccc(Nc3ncc(F)c(-c4cnc(C)n4C(C)C)n3)cc2)C1 | 0.05 |
| Cc1ncc(-c2ccnc(Nc3ccc(N4CCN(S(C)(=O)=O)CC4)cc3)n2)n1C(C)C | 0.08 |
| Cc1ncc(-c2ccnc(Nc3ccc(N4CCN(C(=O)CN(C)C)CC4)cc3)n2)n1C(C)C | 0.4 |

Next item in the queue.
Exercise: So what does the record say about fraction unbound for Cc1ncc(-c2ccnc(Nc3ccc(N4CCN(C(=O)CO)CC4)cc3)n2)n1C(C)C ?
Key: 0.22

* * *

assay: Oral bioavailability in dog; assay type: ADME, organism-based, Canis lupus familiaris; conditions: in vivo
// bioavailability lookup, one value per entry
Write the numeric value and follow it with the unit.

Answered examples (2):
| smiles-notation | bioavailability |
| --- | --- |
| Cc1ncc(-c2nc(Nc3ccc(N4CCOCC4)cc3)ncc2F)n1C(C)C | 3% |
| Cc1ncc(-c2nc(Nc3ccc(N4CCN(C(=O)CO)CC4)cc3)ncc2F)n1C(C)C | 31% |

Next item in the queue.
Exercise: So what does the record say about bioavailability for Cc1ncc(-c2ccnc(Nc3ccc(N4CCN(C(=O)CO)CC4)cc3)n2)n1C(C)C ?
Key: 79%

* * *

// clearance lookup, one value per entry
experiment: Plasma clearance in dog; format: ADME, organism-based, Canis lupus familiaris
All answers are understood in mL/min/kg, so give the number only.

Exercise: So what does the record say about clearance for Cc1ncc(-c2nc(Nc3ccc(N4CCN(C(=O)CO)CC4)cc3)ncc2F)n1C(C)C ?
Key: 24

Exercise: And what about the compound Cc1ncc(-c2ccnc(Nc3ccc(N4CCN(C(=O)CO)CC4)cc3)n2)n1C(C)C ?
Key: 19

Exercise: And what about the compound Cc1ncc(-c2nc(Nc3ccc(N4CCOCC4)cc3)ncc2F)n1C(C)C ?
Key: 140
